System: DeltatarO mutant
Assay: S. aureus survival, RN4220 and DeltatarO strains – OD600, teichoic acid synthesis inhibitors, primary screen (AID 463173)
Details: S. aureus RN4220 wild type/DeltatarO growth, OD600, 18 h, hits give low values, screened at 18.75 µg/mL (by protocol)
In all, about 52,000 compounds went through this assay and about 4,300 (8.3%) were called active. The full list was thinned out, with actives kept by preference.
Assign survival to each entry below.
One number for each entry, in %.

Observe how each entry below is paired with its result.
INSERT INTO assay_data (molecule, target_desc, unit_annotation, data_value) VALUES
  ('Cc1ccc(-n2ncc3c(N4CCN(C)CC4)ncnc32)cc1', 'DeltatarO mutant', '%', 81),
  ('CCC(C(=O)Nc1cc(C)ccc1C)n1c(=O)c(C(F)(F)F)nc2ccccc21 (stereo not given)', 'DeltatarO mutant', '%', 102),
  ('COc1ccc(Cl)cc1NC(=O)CSc1nnc(C)n2c1cc1occc12', 'DeltatarO mutant', '%', 50),
  ('CCCOc1ccc(C2C(=O)N(C3CCCCCC3)CC(=O)N2CCC2=CCCCC2)cc1OC (stereo not given)', 'DeltatarO mutant', '%', 119),
  ('CCCOc1ccc(C2C(=O)N(C3CCCCCC3)CC(=O)N2CCC)cc1OC (stereo not given)', 'DeltatarO mutant', '%', -4);

Okay, here is my list. What is survival for each of these?
1. COc1cc(OC)c(NC(=O)NCc2ccc3c(c2)CCN3C(C)=O)cc1Cl
2. COc1ccc(-c2cc(C(=O)Nc3c(C)n(C)n(-c4ccccc4)c3=O)no2)cc1

Result:
[124, 46]

---

Tested on: DeltatarO mutant
Assay: S. aureus survival, RN4220 and DeltatarO strains – OD600, teichoic acid synthesis inhibitors, primary screen (AID 463173)
Conditions: S. aureus RN4220 wild type/DeltatarO growth, OD600, 18 h, screened at 18.75 µg/mL (by protocol)
The campaign covered roughly 52,000 compounds. About 4,300 (8.3%) were called active. Rule as the data show it: active = survival mostly below about 52% (no sharp cut-off); inactive = mostly above about 56%. For the sample, actives were picked, then their nearest neighbours and some compounds at random.
Permitted responses: active, inactive

INSERT INTO measurements (molecule, target_desc, category) VALUES
  ('CCOC(=O)c1cc(-c2ccccc2)n(-c2cccc(C(=O)Nc3cccc(F)c3)c2)c1C', 'DeltatarO mutant', 'inactive'),
  ('CC(C)(C)C(=O)Nc1ccc2nc(SCCOc3ccccc3Cl)sc2c1', 'DeltatarO mutant', 'inactive'),
  ('O=C(Nc1ccc2nc(SCCOc3ccccc3Cl)sc2c1)c1cccs1', 'DeltatarO mutant', 'inactive'),
  ('CCc1ccccc1NC(=O)c1cnn2c(C(F)(F)F)cc(-c3ccc(OC)c(OC)c3)nc12', 'DeltatarO mutant', 'active'),
  ('COc1ccc(-c2cc(C(F)(F)F)n3nc(C(=O)Nc4ccccc4SC)cc3n2)cc1OC', 'DeltatarO mutant', 'inactive'),
  ('CCc1nnc(NC(=O)CSC2=NC(=O)C(NC(C)=O)C(=O)N2)s1 (stereo not drawn)', 'DeltatarO mutant', 'inactive'),
  ('O=C(CSc1nc2ccncc2[nH]1)Nc1ccccc1C(F)(F)F', 'DeltatarO mutant', 'inactive'),
  ('Cc1cccc(OC(=O)c2cc(-c3ccc4c(c3)OCCO4)on2)c1', 'DeltatarO mutant', 'active');

Request: // param item: `Cc1cn(C)c(CC(=O)NCc2cccc(Cl)c2)c1C(=O)O` ; yields the recorded call
Result: active

Request: Follow-up entry: `O=C(Nc1cccc(C(F)(F)F)c1)c1cc(-c2ccc3c(c2)OCCO3)on1`
Result: inactive

Request: Follow-up entry: `Cc1ccc(OCCSc2nc3ccc(NC(=O)c4ccco4)cc3s2)cc1`
Result: inactive

Request: Follow-up entry: `Cc1cc(C)cc(OC(=O)c2cc(-c3ccc(Cl)cc3)on2)c1`
Result: inactive

Request: Follow-up entry: `COc1ccc(CNC(=O)Cc2c(C(=O)O)c(C)cn2C)cc1`
Result: inactive

Request: Follow-up entry: `Cc1ccc(O)c(NC(=O)c2cc(-c3ccc4c(c3)OCO4)on2)c1`
Result: inactive

Request: Follow-up entry: `Cc1ccc(-c2cc(C(=O)Oc3ccc(C#N)cc3)no2)cc1C`
Result: inactive

Request: Follow-up entry: `O=C(Nc1ccc2nc(SCCOc3ccccc3)sc2c1)c1ccco1`
Result: inactive

Request: Follow-up entry: `COc1ccc(OCC(=O)Nn2cnnc2)cc1`
Result: inactive

Request: Follow-up entry: `COc1cccc(NC(=O)CN(CCc2ccccc2)S(=O)(=O)c2ccc(Cl)cc2)c1`
Result: inactive

Request: Follow-up entry: `CCOC(=O)Cc1csc(NC(=O)CSc2nc3c(C)c(C)ccc3cc2C#N)n1`
Result: inactive

Request: Follow-up entry: `Nc1nnc2c(Nc3ccccc3)nc3nonc3n12`
Result: inactive

Request: Follow-up entry: `Cc1oc(-c2ccccc2)nc1Cn1c(=O)cc(-c2ccccc2)c2c(C)nn(C)c21`
Result: inactive

Request: Follow-up entry: Clc1ccc(CCNC(c2cccc(Cl)c2)c2nnc(-c3ccccc3)o2)cc1 (stereo not drawn)
Result: active

Request: Follow-up entry: `O=C(Cn1ncc2c(=O)oc3ccccc3c21)N1CCN(c2ccc(Cl)cc2)CC1`
Result: inactive

Request: Follow-up entry: CCOC(=O)c1ccccc1NC(=O)CN1C(=O)CC(c2ccco2)Sc2ccccc21 (stereo not drawn)
Result: inactive

Request: Follow-up entry: `Cc1ccc[n+](Cc2cnc(C)nc2N)c1`
Result: inactive

Request: Follow-up entry: `COc1cccc(CNC(=O)Cc2c(C(=O)O)c(C)cn2C)c1`
Result: active

Request: Follow-up entry: `CCc1ccc(-n2c(=O)c3ccccc3n(CC(=O)NCCc3ccc(OC)c(OC)c3)c2=O)cc1`
Result: inactive

Request: Follow-up entry: `CN(C)S(=O)(=O)c1ccc(S(=O)(=O)N(CC(=O)Nc2ccccc2)C2CC2)cc1`
Result: inactive

Request: Follow-up entry: `O=C1CCC(=O)N1CC(=O)N1CCCc2ccccc21`
Result: inactive

Request: Follow-up entry: `Nc1ccc2nc(C(F)(F)F)[nH]c2c1`
Result: inactive

---

System: DeltatarO mutant
Test: S. aureus survival, RN4220 and DeltatarO strains – OD600, teichoic acid synthesis inhibitors, primary screen (AID 463173)
Conditions: S. aureus RN4220 wild type/DeltatarO growth, OD600, 18 h, hits give low values, screened at 18.75 µg/mL (by protocol)
The campaign covered roughly 52,000 compounds. About 4,300 (8.3%) were called active. Many of the other results were omitted from the sample, so actives are more common in it than they were.
Threshold 70%: survival strictly smaller gives label 1, otherwise label 0.

Answered cases to consult:
INSERT INTO results (compound, target_desc, category) VALUES
  ('CC1CCC(Nc2ncnc3onc(-c4ccc(Cl)cc4)c23)CC1 (stereo unspecified)', 'DeltatarO mutant', 'label 1'),
  ('Clc1ccc(-c2noc3ncnc(NC4CCCCC4)c23)cc1', 'DeltatarO mutant', 'label 1'),
  ('Clc1ccc(CNc2ncnc3onc(-c4ccc(Cl)cc4)c23)cc1', 'DeltatarO mutant', 'label 0'),
  ('Cc1ccccc1Cn1c(CN2CCC(C(=O)NCc3ccc(Cl)cc3)CC2)cc2ccccc21', 'DeltatarO mutant', 'label 1');

Request: Confirm or reject: survival of `COc1cc(Nc2ncnc3onc(-c4ccc(Cl)cc4)c23)cc(OC)c1` lies strictly below 70%
Result: label 0

---

Assign survival to each entry below.
System: DeltatarO mutant
Assay: S. aureus survival, RN4220 and DeltatarO strains – OD600, teichoic acid synthesis inhibitors, primary screen (AID 463173)
Details: S. aureus RN4220 wild type/DeltatarO growth, OD600, 18 h, hits give low values, screened at 18.75 µg/mL (by protocol)
Out of some 52,000 compounds screened, about 4,300 (8.3%) were called active. What follows is part of a selection rich in actives, with near analogues and random picks from the rest.
Give bare numbers, in %.

INSERT INTO measurements (given_smiles, endpoint_label, data_value) VALUES
  ('Oc1ccc(-c2nc3ccc(Cl)cn3c2Nc2ccc3c(c2)OCO3)cc1', 'survival', 106),
  ('Cc1cc(=O)[nH]c2nnc(SCC(=O)Nc3cc(C(F)(F)F)ccc3Cl)n12', 'survival', 116),
  ('Cc1cc(C(=O)O)on1', 'survival', 83),
  ('CCOc1ccc(CNC(=O)c2ccc3c(c2)c(C)c(C)n3Cc2ccc(Cl)cc2)cc1', 'survival', 67),
  ('Cc1cccc(NC(=O)CSc2nc3c(sc4ccccc43)c(=O)n2CCCC(=O)NC2CCCC2)c1', 'survival', 87);

Continue with the next molecule.
Request: Any idea what survival came out for `CSc1nc(N)c(C#N)c(C(C)C)c1C#N` on DeltatarO mutant?
Result: 75

---

Test system: DeltatarO mutant
Experiment: S. aureus survival, RN4220 and DeltatarO strains – OD600, teichoic acid synthesis inhibitors, primary screen (AID 463173)
Conditions: S. aureus RN4220 wild type/DeltatarO growth, OD600, 18 h, hits give low values, screened at 18.75 µg/mL (by protocol)
Among all 52,000 compounds or so, about 4,300 (8.3%) were called active. Only a selection was taken, and actives are over-represented in it overall.
Threshold 70%: survival strictly smaller gives 1, otherwise -1.

Answered cases to consult:
INSERT INTO measurements (molecule, target_desc, category) VALUES
  ('Cc1ccc(NC(=O)/C=C/c2ccc(C)o2)c(C)c1', 'DeltatarO mutant', 1),
  ('O=C(NCc1ccc(Cl)cc1)C1CCCN(C(=O)c2cnn(-c3ccc(F)cc3)c2-n2cccc2)C1 (stereo not given)', 'DeltatarO mutant', -1),
  ('CCc1ccc(CNC(=O)c2ccc(-n3c(C)cc4c3CCC(C)C4)cc2)cc1 (stereo not given)', 'DeltatarO mutant', -1),
  ('COc1ccccc1C(=O)Nc1nc2nc(C)c(Cc3ccccc3)c(=O)n2[nH]1', 'DeltatarO mutant', -1),
  ('CC(=O)c1cccc(NC(=O)c2cnn(-c3cccc(C)c3)c2-n2cccc2)c1', 'DeltatarO mutant', -1),
  ('CCOc1ccccc1NC(=O)C(=O)NCCc1sc(-c2cccc(F)c2)nc1C', 'DeltatarO mutant', -1),
  ('Cc1ccc(N(CC(=O)N2CCN(c3cccc(C)c3C)CC2)S(=O)(=O)c2c(C)nn(C)c2C)cc1', 'DeltatarO mutant', -1),
  ('COc1ccc(OC)c(NC(=O)/C=C/c2ccc(C)o2)c1', 'DeltatarO mutant', 1);

Lab note: next molecule to report on.
Request: Confirm or reject: survival of CN(C)c1ccc(CN(CC2CCCO2)C(=O)COc2ccc(Cl)cc2)cc1 (stereo not given) lies strictly below 70%
Result: 1

Every entry's value here was drawn from PubChem BioAssay AID463173.
